test system: HEL cells; settings: read-out: CC50 (HEL); HEL cells; anti-VZV table
Recorded CC50 values for a group of compounds are listed next.

-- ask Can you look up the measured CC50 of CNC(CC(C)C)C(=O)NC1C(=O)NC(CC(N)=O)C(=O)NC2C(=O)NC3C(=O)NC(C(=O)NC(C(=O)O)c4cc(O)c(CN5CCN(Cc6ccc(-c7ccccc7)cc6)CC5)c(O)c4-c4cc3ccc4O)C(O)c3ccc(cc3)Oc3cc2cc(c3O)Oc2ccc(cc2Cl)C1O (centres unmarked) [Compound 6] for me?
-- reply > 50 µM

Next:
-- ask Can you look up the measured CC50 of NC1C(=O)NC2Cc3ccc(c(Cl)c3)Oc3cc4cc(c3O)Oc3ccc(cc3Cl)C(O)C3NC(=O)C(NC(=O)C4NC(=O)C(NC2=O)c2cc(O)cc(c2)Oc2cc1ccc2O)c1ccc(O)c(c1)-c1c(O)cc(O)cc1C(C(=O)N1CCN(Cc2ccc4ccccc4c2)CC1)NC3=O (centres unmarked) [Compound 25] for me?
-- reply > 50 µM

----------
Recorded CC50 values for a group of compounds are listed next.
assay: in vitro; conditions: cat

-- ask Can you look up the measured CC50 of NC1C(=O)NC2Cc3ccc(c(Cl)c3)Oc3cc4cc(c3O)Oc3ccc(cc3Cl)C(O)C(C(=O)O)NC(=O)C(c3ccc(O)c(-c5c(O)cc(O)cc5C(N)C(=O)O)c3)NC(=O)C4NC(=O)C(NC2=O)c2cc(O)cc(c2)Oc2cc1ccc2O (stereo not drawn) for me?
-- reply > 100 µM

-- ask Can you look up the measured CC50 of COC(=O)C1NC(=O)C2NC(=O)C(NC(=O)C(NC(=O)OC(C)(C)C)c3cc(Oc4ccc(CC(NC(=O)OCc5ccccc5)C(=O)O)cc4Cl)c(O)c(c3)Oc3ccc(cc3Cl)C2O)c2ccc(O)c(c2)-c2c(O)cc(O)cc21 (stereo not drawn) for me?
-- reply > 100 µM

Query compound follows.
-- ask Can you look up the measured CC50 of NC1Cc2ccc(c(Cl)c2)Oc2cc3cc(c2O)Oc2ccc(cc2Cl)C(O)C2NC(=O)C(NC(=O)C3NC(=O)C(c3cc(O)cc(Oc4cc(C5NC(=S)N(c6ccccc6)C5=O)ccc4O)c3)NC1=O)c1ccc(O)c(c1)-c1c(O)cc(O)cc1C(C(=O)O)NC2=O (stereo not drawn) for me?
-- reply > 100 µM

----------
tested on: HEL cells; conditions: anti-VZV table
Recorded MTC (HEL) values for a group of molecules are listed next.

-- ask Can you look up the measured MTC (HEL) of CCCCc1ccc(CNCc2c(O)cc3c(c2O)-c2cc(ccc2O)C2NC(=O)C4NC(=O)C5NC(=O)C(Cc6ccc(c(Cl)c6)Oc6cc4cc(c6O)Oc4ccc(cc4Cl)C(O)C(NC2=O)C(=O)NC3C(=O)O)NC(=O)C(N)c2ccc(O)c(c2)Oc2cc(O)cc5c2)cc1 (stereo not shown) for me?
-- reply 20 to 50 µM

Query molecule follows.
-- ask Can you look up the measured MTC (HEL) of CNC(CC(C)C)C(=O)NC1C(=O)NC(CC(N)=O)C(=O)NC2C(=O)NC3C(=O)NC(C(=O)NC(C(=O)O)c4cc(O)cc(O)c4-c4cc3ccc4O)C(O)c3ccc(c(Cl)c3)Oc3cc2cc(c3OC2OC(CO)C(O)C(O)C2OC2CC(C)(NCc3ccc(-c4ccc(Cl)cc4)cc3)C(O)C(C)O2)Oc2ccc(cc2Cl)C1O (stereo not shown) for me?
-- reply 5 to 20 µM

----------
tested on: HIV-2 (EHO); conditions: read-out: EC50 CEM/0 HIV-2 (EHO); CEM/0 cells
Measured Quantity: EC50 (µM)
Answer in µM, number only, no unit symbol.

Examples with answers:
-- ask Can you look up the measured EC50 of CCCCc1ccc(CN2CCN(Cc3c(O)cc4c(c3O)-c3cc(ccc3O)C3NC(=O)C5NC(=O)C6NC(=O)C(Cc7ccc(c(Cl)c7)Oc7cc5cc(c7O)Oc5ccc(cc5Cl)C(O)C(NC3=O)C(=O)NC4C(=O)NC)NC(=O)C(N)c3ccc(O)c(c3)Oc3cc(O)cc6c3)CC2)cc1 (stereo not shown) [Compound 31] for me?
-- reply 6.8

-- ask Can you look up the measured EC50 of CNC(=O)C1NC(=O)C2NC(=O)C(NC(=O)C3NC(=O)C4NC(=O)C(Cc5ccc(c(Cl)c5)Oc5cc3cc(c5O)Oc3ccc(cc3Cl)C2O)NC(=O)C(N)c2ccc(O)c(c2)Oc2cc(O)cc4c2)c2ccc(O)c(c2)-c2c1cc(O)c(CNC1C3CC4CC(C3)CC1C4)c2O (stereo not shown) [Compound 51] for me?
-- reply 13

Next:
-- ask Can you look up the measured EC50 of CCCCc1ccc(CN2CCN(Cc3c(O)cc4c(c3O)-c3cc(ccc3O)C3NC(=O)C5NC(=O)C6NC(=O)C(Cc7ccc(c(Cl)c7)Oc7cc5cc(c7O)Oc5ccc(cc5Cl)C(O)C(NC3=O)C(=O)NC4C(=O)NCCCN(C)C)NC(=O)C(N)c3ccc(O)c(c3)Oc3cc(O)cc6c3)CC2)cc1 (stereo not shown) [Compound 30] for me?
-- reply 11

-- ask Can you look up the measured EC50 of CCCCc1ccc(CNCC(=O)N2CCN(C(=O)C3NC(=O)C4NC(=O)C(NC(=O)C5NC(=O)C6NC(=O)C(Cc7ccc(c(Cl)c7)Oc7cc5cc(c7O)Oc5ccc(cc5Cl)C4O)NC(=O)C(N)c4ccc(O)c(c4)Oc4cc(O)cc6c4)c4ccc(O)c(c4)-c4c(O)cc(O)cc43)CC2)cc1 (stereo not shown) [Compound 46] for me?
-- reply 35

----------
tested on: HIV-1 (IIIB); experiment: Inhibition of HIV-1 (IIIB)-induced cytopathicity (giant cell formation) in CEM cells; format: cell-based; conditions: HIV-1 (IIIB), CEM cell cultures; read-out: EC50 against HIV-1
Measured Quantity: EC50 (µM)
Answer in µM, number only, no unit symbol.

-- ask Can you look up the measured EC50 of CCCCc1ccc(CN2CCN(Cc3c(O)cc4c(c3O)-c3cc(ccc3O)C3NC(=O)C5NC(=O)C(CC(N)=O)NC(=O)C(NC(=O)C(CC(C)C)NC)C(O)c6ccc(c(Cl)c6)Oc6cc5cc(c6OC5OC(CO)C(O)C(O)C5OC5CC(C)(N)C(O)C(C)O5)Oc5ccc(cc5Cl)C(O)C(NC3=O)C(=O)NC4C(=O)O)CC2)cc1 (stereo not shown) [Compound 1] for me?
-- reply 5.5

-- ask Can you look up the measured EC50 of CCCCc1ccc(CN2CCN(Cc3c(O)cc4c(c3O)-c3cc(ccc3O)C3NC(=O)C5NC(=O)C(CC(N)=O)NC(=O)C(NC(=O)C(CC(C)C)NC)C(O)c6ccc(c(Cl)c6)Oc6cc5cc(c6OC5OC(CO)C(O)C(O)C5OC5CC(C)(N)C(O)C(C)O5)Oc5ccc(cc5)C(OC5CC(C)(N)C(O)C(C)O5)C(NC3=O)C(=O)NC4C(=O)NC)CC2)cc1 (stereo not shown) [Compound 5] for me?
-- reply 0.43

-- ask Can you look up the measured EC50 of CCCCCCCCCC[N+](C)(C)CCCNC(=O)C1NC(=O)C2NC(=O)C(NC(=O)C3NC(=O)C(CC(N)=O)NC(=O)C(NC(=O)C(CC(C)C)NC)C(O)c4ccc(c(Cl)c4)Oc4cc3cc(c4OC3OC(CO)C(O)C(O)C3OC3CC(C)(N)C(O)C(C)O3)Oc3ccc(cc3Cl)C2O)c2ccc(O)c(c2)-c2c(O)cc(O)cc21 (stereo not shown) [Compound 2] for me?
-- reply 12

-- ask Can you look up the measured EC50 of NC1Cc2ccc(c(Cl)c2)Oc2cc3cc(c2O)Oc2ccc(cc2Cl)C(O)C2NC(=O)C(NC(=O)C3NC(=O)C(c3cc(O)cc(Oc4cc(C5NC(=S)N(c6ccccc6)C5=O)ccc4O)c3)NC1=O)c1ccc(O)c(c1)-c1c(cc(O)c(CNC3C4CC5CC(C4)CC3C5)c1O)C(C(=O)O)NC2=O (stereo not shown) [Compound 55] for me?
-- reply 13

----------
system: HIV-2 (RF); conditions: read-out: EC50 CEM/0 HIV-2 (RF); CEM/0 cells
Measured Quantity: pEC50
Field pEC50 (float): negative decimal logarithm of the concentration in molar.

-- ask Can you look up the measured pEC50 of CCCCc1ccc(CN2CCN(Cc3c(O)cc4c(c3O)-c3cc(ccc3O)C3NC(=O)C5NC(=O)C6NC(=O)C(Cc7ccc(c(Cl)c7)Oc7cc5cc(c7O)Oc5ccc(cc5Cl)C(O)C(NC3=O)C(=O)NC4C(=O)NCCCN(C)C)NC(=O)C(N)c3ccc(O)c(c3)Oc3cc(O)cc6c3)CC2)cc1 (stereo not shown) for me?
-- reply 5.43

----------
system: HEL cells; details: read-out: CC50 (HEL); HEL cells; anti-VZV table
Measured Quantity: CC50 (µM)
Answer in µM, number only, no unit symbol.

-- ask Can you look up the measured CC50 of CCCCCCCNC(=O)C1NC(=O)C2NC(=O)C(NC(=O)C3NC(=O)C(CC(N)=O)NC(=O)C(NC(=O)C(CC(C)C)NC)C(O)c4ccc(c(Cl)c4)Oc4cc3cc(c4OC3OC(CO)C(O)C(O)C3OC3CC(C)(N)C(O)C(C)O3)Oc3ccc(cc3)C2OC2CC(C)(N)C(O)C(C)O2)c2ccc(O)c(c2)-c2c(O)cc(O)cc21 (centres unmarked) for me?
-- reply 129
